# Test system: Saccharomyces cerevisiae
# Measurement notes: Antifungal activity against Saccharomyces cerevisiae BY4741 assessed as fungal growth at 500 uM after 48 hrs by microtiter plate liquid bioassay (reference value: 100%)
# Type: functional
For each record, write down the corresponding Activity.
Param answer (str): number followed by unit.

Compound | Readout kind | Result
O=C1C(=O)N(CCCCCBr)c2ccccc21 | Activity | 50%
O=C1C(=O)N(CCCCCCCCBr)c2ccccc21 | Activity | 0%
O=C1C(=O)N(CCBr)c2ccccc21 | Activity | 75%
O=C1C(=O)N(CCN2C(=O)C(=O)c3cc(Cl)ccc32)c2ccccc21 | Activity | 50%
O=C1C(=O)N(CCCCCCBr)c2ccccc21 | Activity | 0%

Hi team, please reply with Activity for each item in this list.
1. CCCCCCCCOC(=O)c1cc(O)c(O)c(O)c1 [OCTYL_GALLATE]
2. O=C1C(=O)N(CCCCCN2C(=O)C(=O)c3cc(Br)ccc32)c2ccccc21

**A:**
1: 0%; 2: 100%
